Test system: HIV-1 integrase (multimerization)
Method notes: HIV-1 IN multimer formation enhancers, counter-screen for LEDGF/p75 integration inhibitor project, biochemical, TR-FRET (AID 1053131)
Conditions: TR-FRET HIV-1 integrase multimerization, at 7.7 µM
The list shows a part of the results. Activity calls are given as the source filed them. Cut-off read from the data, not from the text of the source: active = activation above about 8.9%; inactive = the rest.
The reply should be one of these categories: active, inactive

Request: Call for entry COc1ccccc1-c1cc(C(=O)NCCCn2ccnc2)no1 :
Result: inactive

Request: Call for entry Cc1ccc(Cc2cnc(N)s2)o1 :
Result: inactive

Request: Call for entry Clc1ccc(C2=CSC3=Nc4cccc5cccc(c45)N23)cc1 :
Result: inactive

Request: Call for entry Cc1ccc(C(=O)N2CCCc3ccccc32)c(Cl)c1 :
Result: inactive

Request: Call for entry Oc1c(CN2CCOCC2)ccc(CN2CCOCC2)c1O :
Result: inactive

Request: Call for entry C=CCN1C(=O)C(O)(CC(=O)c2ccccn2)c2ccccc21 (centres undefined) :
Result: inactive

Request: Call for entry CCN(CC)CCCC(C)n1c2nc(=O)[nH]c(=O)c-2nc2cc(Cl)ccc21 (centres undefined) :
Result: inactive

Request: Call for entry COc1ccc(S(=O)(=O)N2CCCCC2)cc1C(=O)NC1CCS(=O)(=O)C1 (centres undefined) :
Result: inactive

Request: Call for entry COc1ccc(Cn2cc(CN3CCS(=O)(=O)N(Cc4ccc(-c5cccc(Cl)c5)cc4)C(C)C3=O)nn2)cc1 (centres undefined) :
Result: inactive

Request: Call for entry CCOC(=O)/C(C#N)=C\c1c(C)cc(C)c(COC(C)=O)c1C :
Result: inactive

Request: Call for entry CSc1nc(N)c(C#N)c(-c2ccccc2Cl)c1C#N :
Result: inactive

Request: Call for entry O=C(COC(=O)CCC(=O)c1cccs1)NCc1ccco1 :
Result: active

Request: Call for entry CC(=O)OCC1(O)CC23CCC4c5ccoc5CCC4(C)C2CCC1C3 (centres undefined) :
Result: inactive

Request: Call for entry O=C(Nc1nnc(-c2ccco2)o1)c1ccc(S(=O)(=O)N2CCOCC2)cc1 :
Result: inactive

Request: Call for entry COCCn1nnnc1C(c1cc2ccc(OC)cc2[nH]c1=O)N1CCc2ccccc2C1 (centres undefined) :
Result: inactive

Request: Call for entry CCOc1cccc(=O)c2c(C)n(CC3CCCO3)c(C)c12 (centres undefined) :
Result: inactive

Request: Call for entry NC(=O)c1ccccc1NC(=O)c1ccccc1F :
Result: inactive

Request: Call for entry O=C(O)CCC(=O)Nc1ccc(N2CCOCC2)cc1 :
Result: inactive

Request: Call for entry COc1ccc(S(=O)(=O)/N=C2\C=C(NS(=O)(=O)c3ccccc3)C(=O)c3ccccc32)cc1 :
Result: inactive

Request: Call for entry Clc1cc(NC2CCCCC2)ncn1 :
Result: inactive

Request: Call for entry Oc1ccc(N=Cc2sc3ccccc3c2Cl)cc1 :
Result: active

Request: Call for entry Cc1ccc(-c2nn(-c3ccccc3)cc2/C=C2\SC(=S)N(CCCCCC(=O)O)C2=O)o1 :
Result: active

Request: Call for entry CN(C)c1ccc(C(CC(=O)O)C(=O)O)cc1 (centres undefined) :
Result: inactive

Request: Call for entry CN(CC(=O)Nc1ccc(S(=O)(=O)N2CCCC2)cc1)Cc1ccc(Cl)c(Cl)c1 :
Result: inactive

Request: Call for entry Cc1ccc(N=C2NC(=O)/C(=C/C=C/c3ccco3)S2)cc1C :
Result: active

Request: Call for entry Cc1sc2nc(SCC(=O)c3ccc(O)c(O)c3)n(Cc3ccco3)c(=O)c2c1C :
Result: inactive

Request: Call for entry Cc1cc(C(=O)N/N=C/c2ccc(O)c([N+](=O)[O-])c2)c(C)n1-c1ccc(F)cc1 :
Result: active

Request: Call for entry CN(C)c1ccc(N/C=C/C(=O)C(F)(F)F)cc1 :
Result: active

Request: Call for entry COc1ccc(C(=O)/C=C/c2ccc(-c3ccccc3)cc2)cc1CSCC(=O)O :
Result: inactive

Request: Call for entry O=C(O)c1ccc(NN=CC2=C(N3CCOCC3)/C(=C/c3ccccc3)CC2)cc1 :
Result: inactive

Request: Call for entry CN(C)/C=C/C(=O)c1cnc2sccn2c1=O :
Result: inactive

Request: Call for entry CO/N=C(\C(=O)N[C@@H]1C(=O)N2C(C(=O)O)=C(COC(C)=O)CS[C@H]12)c1csc(N)n1 (stereo in doubt) :
Result: inactive

Request: Call for entry COc1ccc(C2CC(c3cccs3)=NN2C(=O)COC(=O)c2cc3ccccc3cc2O)cc1OC (centres undefined) :
Result: inactive

Request: Call for entry NC1=NN(c2cccc(C(=O)O)c2)C(=O)C1 :
Result: active

Request: Call for entry C=CCn1c(=S)[nH]c2scc(-c3ccco3)c2c1=O :
Result: inactive

Request: Call for entry Cc1ccccc1NCC(=O)N/N=C\c1ccc([N+](=O)[O-])s1 :
Result: inactive

Request: Call for entry O=C1OC(/C=C/c2ccccc2)=NC/1=C/c1ccco1 :
Result: inactive

Request: Call for entry CCCCNC(=O)OC1CC2CC1[C@H]1CCCCN1C2=O (some centres undefined) :
Result: inactive

Request: Call for entry C=CCn1c2ccccc2c2nnc(SCc3[nH]c(=O)[nH]c3C(=O)CCCCC(=O)OCC)nc21 :
Result: inactive
